This collection of values is drawn from patent US20250171434A1.

System: multiple myeloma cell line NCI-H929
method: H929 Cell Viability Assay
Assay type: cell-based, human
conditions used: Homo sapiens; NCI-H929 cells, 48 hours, Celltiter-Glo; read-out: 48 hr H929 Viability Celltiter-Glo: Mean EC50
value type: EC50 (µM)

[
  {
    "compound": "O=C(Nc1nc(/C=C/[C@H]2CC[C@H](C(F)(F)F)CC2)cs1)c1cccn1Cc1ccncc1 [Compound B10]",
    "unit symbol": "µM",
    "reported measurement": 5.81
  },
  {
    "compound": "CN[C@H]1CC[C@@H](/C=C/c2csc(NC(=O)c3cccn3Cc3ccncc3)n2)CC1 [Compound B11]",
    "unit symbol": "µM",
    "reported measurement": 24.7
  },
  {
    "compound": "CC(C)n1cnc(/C=C/c2csc(NC(=O)c3cc(Cl)cn3Cc3ccnc(F)c3)n2)c1C(F)(F)F [Compound A10]",
    "unit symbol": "µM",
    "reported measurement": 5.45
  },
  {
    "compound": "N[C@H]1CC[C@@H](/C=C/c2csc(NC(=O)c3cccn3Cc3ccncc3)n2)CC1 [Compound B16]",
    "unit symbol": "µM",
    "reported measurement": 19.3
  }
]

(1) O=C(Nc1nc(/C=C/c2ncoc2C(F)(F)F)cs1)c1cc(Cl)cn1Cc1ccnc(F)c1 [Compound A8]
(2) O=C(Nc1nc(/C=C/c2ncn(C3CC3)c2Cl)cs1)c1cc(SC(F)(F)F)cn1Cc1ccnc(F)c1 [Compound A31]
(3) C/C(=C\c1cn(C(C)C)cn1)c1csc(NC(=O)c2cccn2Cc2ccncc2)n1 [Compound B25]
Prompt: Endpoint returns the given compounds ordered by ascending EC50. Form field (ranking): labels in requested order.
Response: 1, 3, 2
(1: 7.44 µM, 3: 13.7 µM, 2: 22.7 µM)
